- Tested on: DMPK
- measurement_notes: DMPK knockdown by transfected antisense oligonucleotides in DM1 C15 myotubes at 0.5 nM and 50 nM
- Format: cell-based
- measurement_parameters: 50 nM oligonucleotide, 72 hours, qPCR, relative to vehicle control = 1.00
Normalized DMPK Remaining overview

Some substances with known Normalized DMPK Remaining results, for comparison:
substance | Normalized DMPK Remaining
354 (AGACAAUAAAUACCGAGGAA; chemistry not given here) [compound 354] | 0.52
348 (AUGAUCUUCAUGGCAUACAC; chemistry not given here) [compound 348] | 0.60
283 (GCCAAAGAAGAAGGGAUGUG; chemistry not given here) [compound 283] | 0.44
367 (GAUGUCCCUGUGCACGUAGC; chemistry not given here) [compound 367] | 0.38

q: What value of measured Normalized DMPK Remaining is listed for 362 (GCUGUCCCGGAGACCAUCCC; chemistry not given here) [compound 362] ?
a: 0.34

q: Give its Normalized DMPK Remaining value. Item: 255 (GUUGCGGGUUUGAUGUCCC; chemistry not given here) [compound 255]
a: 0.39

q: Which Normalized DMPK Remaining is listed for 308 (UGACAAUCUCCGCCAGGUAG; chemistry not given here) [compound 308] ?
a: 0.33

q: Entry 365 (UCUCAGUGCAUCCAAAACGU; chemistry not given here) [compound 365] has what Normalized DMPK Remaining?
a: 0.49
